- Procedure Details: Antioxidant activity of the compound assessed as DPPH radical scavenging activity at 1 mM after 5 mins by spectrophotometric method
- Type: functional
Measured Endpoint: inhibition
I'd appreciate it if you included the unit after the number.

Data request: Name the recorded inhibition of the item CCOc1cc(C=C(C(=O)/C=C/c2ccc(O)c(OCC)c2)C(=O)/C=C/c2ccc(O)c(OCC)c2)ccc1O in your answer.
Data returned: 50.6%

Data request: Let me know recorded inhibition for COc1cc(/C=C/C(=O)C(=Cc2ccccc2)C(=O)/C=C/c2ccc(O)c(OC)c2)ccc1O , thanks.
Data returned: 58.6%

Data request: # return recorded inhibition for entry COc1cc(/C=C/C(=O)C(=Cc2ccc(OC)c(OC)c2)C(=O)/C=C/c2ccc(O)c(OC)c2)ccc1O
Data returned: 64.8%

Data request: Kindly indicate its recorded inhibition. Item: COc1cc(/C=C/C(=O)C(=Cc2ccc(O)c(O)c2)C(=O)/C=C/c2ccc(O)c(OC)c2)ccc1O
Data returned: 92.5%

###

- Tgt: Extracellular superoxide dismutase [Cu-Zn] (Homo sapiens)
- Procedure Details: Inhibition of SOD3 in human DLD1 cells at 100 uM using xanthine as substrate pretreated for 24 hrs followed by substrate addition after 5 mins by NBT dye based spectrophotometric method
- Assay type: cell-based
The source made the active and inactive calls. The rule behind the calls is not given here.
Response enum: active, inactive

Data request: # fetch the recorded call for COc1cc(/C=C/C(=O)C(=Cc2ccc(OC)c(OC)c2)C(=O)/C=C/c2ccc(O)c(OC)c2)ccc1O here
Data returned: inactive

Data request: Outcome logged for CCOc1cc(/C=C/C(=O)C(=Cc2ccc(O)cc2)C(=O)/C=C/c2ccc(O)c(OCC)c2)ccc1O in this assay:
Data returned: inactive

Data request: State the result this test recorded for CCOc1cc(C=C(C(=O)/C=C/c2ccc(O)c(OC)c2)C(=O)/C=C/c2ccc(O)c(OC)c2)ccc1O .
Data returned: inactive

Data request: # fetch the recorded call for CCOc1cc(/C=C/C(=O)C(=Cc2ccc(OCC)c(OCC)c2)C(=O)/C=C/c2ccc(O)c(OCC)c2)ccc1O here
Data returned: inactive

Data request: So what was the verdict on COc1cc(/C=C/C(=O)C(=Cc2ccccc2)C(=O)/C=C/c2ccc(O)c(OC)c2)ccc1O in this test?
Data returned: inactive

Data request: State the result this test recorded for CCOc1cc(/C=C/C(=O)C(=Cc2ccc(O)c(O)c2)C(=O)/C=C/c2ccc(O)c(OCC)c2)ccc1O .
Data returned: active

Data request: Could you kindly confirm the outcome this assay logged for CCOc1cc(/C=C/C(=O)C(=Cc2ccc(OC)c(OC)c2)C(=O)/C=C/c2ccc(O)c(OCC)c2)ccc1O ?
Data returned: inactive

Data request: Kindly provide the recorded test outcome for the following compound: CCOc1cc(C=C(C(=O)/C=C/c2ccc(O)c(OCC)c2)C(=O)/C=C/c2ccc(O)c(OCC)c2)ccc1O
Data returned: inactive

Data request: Dear all, I need the recorded test outcome for CCOc1ccc(C=C(C(=O)/C=C/c2ccc(O)c(OC)c2)C(=O)/C=C/c2ccc(O)c(OC)c2)cc1OCC , thank you.
Data returned: inactive

Data request: What outcome does the record of this test show for CCOc1cc(/C=C/C(=O)C(=Cc2ccc(O)c(OC)c2)C(=O)/C=C/c2ccc(O)c(OCC)c2)ccc1O ?
Data returned: inactive

###

- Tgt: Superoxide dismutase 1/2 (Homo sapiens) (UniProt P00441+P04179)
- Sequence (P00441 whole entry, looked up): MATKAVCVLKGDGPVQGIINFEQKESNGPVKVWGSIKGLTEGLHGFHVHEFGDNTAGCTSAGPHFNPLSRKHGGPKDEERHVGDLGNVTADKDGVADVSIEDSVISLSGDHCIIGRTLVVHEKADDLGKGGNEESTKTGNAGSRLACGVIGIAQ
- Sequence (P04179 whole entry, looked up): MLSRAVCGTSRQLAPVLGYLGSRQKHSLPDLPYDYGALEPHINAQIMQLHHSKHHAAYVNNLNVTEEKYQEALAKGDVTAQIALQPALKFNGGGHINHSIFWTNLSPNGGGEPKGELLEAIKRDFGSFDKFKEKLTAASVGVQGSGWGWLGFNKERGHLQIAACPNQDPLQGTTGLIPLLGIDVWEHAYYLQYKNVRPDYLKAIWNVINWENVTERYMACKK
- Procedure Details: Inhibition of SOD1/SOD2 in human DLD1 cells at 100 uM using xanthine as substrate pretreated for 24 hrs followed by substrate addition measured after 5 mins by NBT dye based spectrophotometric method
- Type: cell-based
The source made the active and inactive calls. No cut-off for these calls is given here.
Pick one and only one: 1.0 for active, 0.0 for inactive

Data request: Given CCOc1ccc(C=C(C(=O)/C=C/c2ccc(O)c(OC)c2)C(=O)/C=C/c2ccc(O)c(OC)c2)cc1OCC , state the outcome it received in this test.
Data returned: 0.0

Data request: Entry CCOc1cc(C=C(C(=O)/C=C/c2ccc(O)c(OCC)c2)C(=O)/C=C/c2ccc(O)c(OCC)c2)ccc1O : call = ?
Data returned: 0.0

Data request: Test call, this compound: COc1cc(/C=C/C(=O)C(=Cc2ccc(O)cc2)C(=O)/C=C/c2ccc(O)c(OC)c2)ccc1O
Data returned: 1.0

Data request: Outcome logged for CCOc1cc(/C=C/C(=O)C(=Cc2ccc(O)cc2)C(=O)/C=C/c2ccc(O)c(OCC)c2)ccc1O in this assay:
Data returned: 0.0

Data request: Which result was noted for this compound in the test: CCOc1cc(/C=C/C(=O)C(=Cc2ccc(OCC)c(OCC)c2)C(=O)/C=C/c2ccc(O)c(OCC)c2)ccc1O
Data returned: 0.0

###

- Procedure Details: Antioxidant activity of the compound assessed as DPPH radical scavenging activity at 1 mM after 5 mins by spectrophotometric method
- Assay type: functional
Measured Endpoint: inhibition

Data request: Supply recorded inhibition for CCOc1cc(/C=C/C(=O)C(=Cc2ccc(O)c(O)c2)C(=O)/C=C/c2ccc(O)c(OCC)c2)ccc1O here.
Data returned: 81.2%

Data request: # return recorded inhibition for entry CCOc1cc(/C=C/C(=O)C(=Cc2ccc(OCC)c(OCC)c2)C(=O)/C=C/c2ccc(O)c(OCC)c2)ccc1O
Data returned: 69%

Data request: Return inhibition (reported value) for this molecule: COc1cc(/C=C/C(=O)CC(=O)/C=C/c2ccc(O)c(OC)c2)ccc1O
Data returned: 91.7%

Data request: Given the molecule CCOc1cc(/C=C/C(=O)C(=Cc2ccc(O)c(OC)c2)C(=O)/C=C/c2ccc(O)c(OCC)c2)ccc1O , write its reported inhibition.
Data returned: 63%

Data request: // fetch inhibition given entry COc1cc(/C=C/C(=O)C(=Cc2ccc(O)cc2)C(=O)/C=C/c2ccc(O)c(OC)c2)ccc1O
Data returned: 73.8%

Data request: Consider the molecule CCOc1cc(/C=C/C(=O)C(=Cc2ccc(O)cc2)C(=O)/C=C/c2ccc(O)c(OCC)c2)ccc1O and give its recorded inhibition.
Data returned: 74.4%

Data request: Determine from records and report inhibition for CCOc1cc(/C=C/C(=O)C(=Cc2ccccc2)C(=O)/C=C/c2ccc(O)c(OCC)c2)ccc1O
Data returned: 54.7%

Data request: Complete the entry with inhibition for CCOc1cc(/C=C/C(=O)CC(=O)/C=C/c2ccc(O)c(OCC)c2)ccc1O
Data returned: 93.4%

Data request: Give recorded inhibition. COc1cc(C=C(C(=O)/C=C/c2ccc(O)c(OC)c2)C(=O)/C=C/c2ccc(O)c(OC)c2)ccc1O
Data returned: 59.1%

Data request: Note down inhibition recorded for CCOc1ccc(C=C(C(=O)/C=C/c2ccc(O)c(OC)c2)C(=O)/C=C/c2ccc(O)c(OC)c2)cc1OCC
Data returned: 61.9%

Data request: In one line, give reported inhibition of the entry CCOc1cc(/C=C/C(=O)C(=Cc2ccc(OC)c(OC)c2)C(=O)/C=C/c2ccc(O)c(OCC)c2)ccc1O .
Data returned: 73.5%

Data request: Retrieve inhibition measured for CCOc1cc(C=C(C(=O)/C=C/c2ccc(O)c(OC)c2)C(=O)/C=C/c2ccc(O)c(OC)c2)ccc1O and print it.
Data returned: 42.3%

###

- Procedure Details: Antioxidant activity of the compound assessed as DPPH radical scavenging activity after 5 mins by spectrophotometric method
- Type: functional
- Parameters: unit not given here
Could you please report measured 1/IC50 for the items listed next?
Enter a number only.

Data request: Provide one value: measured 1/IC50 of COc1cc(/C=C/C(=O)CC(=O)/C=C/c2ccc(O)c(OC)c2)ccc1O [CURCUMIN]
Data returned: 0.038

Data request: Report 1/IC50, nothing else, for this molecule: CCOc1ccc(C=C(C(=O)/C=C/c2ccc(O)c(OC)c2)C(=O)/C=C/c2ccc(O)c(OC)c2)cc1OCC
Data returned: 0.014

Data request: Return reported 1/IC50. Input molecule: CCOc1cc(/C=C/C(=O)C(=Cc2ccccc2)C(=O)/C=C/c2ccc(O)c(OCC)c2)ccc1O
Data returned: 0.011

Data request: Return 1/IC50 (reported value) for this molecule: CCOc1cc(/C=C/C(=O)C(=Cc2ccc(O)cc2)C(=O)/C=C/c2ccc(O)c(OCC)c2)ccc1O
Data returned: 0.021

Data request: Return the recorded 1/IC50 value; entry: CCOc1cc(/C=C/C(=O)C(=Cc2ccc(O)c(O)c2)C(=O)/C=C/c2ccc(O)c(OCC)c2)ccc1O
Data returned: 0.04

Data request: Give the measured 1/IC50 for CCOc1cc(/C=C/C(=O)C(=Cc2ccc(O)c(OC)c2)C(=O)/C=C/c2ccc(O)c(OCC)c2)ccc1O
Data returned: 0.017

Data request: Report 1/IC50, nothing else, for this molecule: CCOc1cc(/C=C/C(=O)C(=Cc2ccc(OCC)c(OCC)c2)C(=O)/C=C/c2ccc(O)c(OCC)c2)ccc1O
Data returned: 0.016

Data request: Look up and report measured 1/IC50 for this entry: COc1cc(/C=C/C(=O)C(=Cc2ccc(OC)c(OC)c2)C(=O)/C=C/c2ccc(O)c(OC)c2)ccc1O
Data returned: 0.014

Data request: Supply reported 1/IC50 belonging to this molecule: CCOc1cc(/C=C/C(=O)CC(=O)/C=C/c2ccc(O)c(OCC)c2)ccc1O [ETHYL CURCUMIN]
Data returned: 0.041

Data request: Please indicate 1/IC50 recorded for CCOc1cc(C=C(C(=O)/C=C/c2ccc(O)c(OCC)c2)C(=O)/C=C/c2ccc(O)c(OCC)c2)ccc1O
Data returned: 0.01

Data request: Fill in reported 1/IC50 for this entry: COc1cc(/C=C/C(=O)C(=Cc2ccc(O)cc2)C(=O)/C=C/c2ccc(O)c(OC)c2)ccc1O
Data returned: 0.021

Data request: Hello, please tell me recorded 1/IC50 for this one: COc1cc(/C=C/C(=O)C(=Cc2ccccc2)C(=O)/C=C/c2ccc(O)c(OC)c2)ccc1O
Data returned: 0.012

Data request: Supply measured 1/IC50 of CCOc1cc(/C=C/C(=O)C(=Cc2ccc(OC)c(OC)c2)C(=O)/C=C/c2ccc(O)c(OCC)c2)ccc1O in your reply.
Data returned: 0.019

Data request: Query 1/IC50 for COc1cc(/C=C/C(=O)C(=Cc2ccc(O)c(O)c2)C(=O)/C=C/c2ccc(O)c(OC)c2)ccc1O
Data returned: 0.097

Data request: Annotate the molecule COc1cc(C=C(C(=O)/C=C/c2ccc(O)c(OC)c2)C(=O)/C=C/c2ccc(O)c(OC)c2)ccc1O with its measured 1/IC50.
Data returned: 0.014

Data request: Respond only with 1/IC50 recorded for CCOc1cc(C=C(C(=O)/C=C/c2ccc(O)c(OC)c2)C(=O)/C=C/c2ccc(O)c(OC)c2)ccc1O
Data returned: 0.01
